Experiment: Plasma pharmacokinetics of LMP776, non-compartmental
Assay type: in vivo, human
Settings: human, plasma, intravenous; DL1, 1 mg/m2, n=1
Description: Blood was collected during cycle 1 in the LMP744 study on C1D1 at the end of infusion (EOI), then again at 0.25, 0.5, 1, 2, 4, and 6 h after EOI. […] Samples were analyzed using a validated LC–MS or LC–MS/MS method for each IIQ as previously described. Plasma-time data were analyzed using WinNonlin (Pharsight, Mountain View, CA). AUC values were calculated by non-compartmental analysis and end-of-infusion concentrations were measured on days 1 and 5 of cycle 1. […]
QUANTITY: Tmax (h)
Report the figure in h without appending any unit label.

Tmax reported for this compound COc1cc2c3c(n(CCCn4ccnc4)c(=O)c2cc1OC)-c1cc2c(cc1C3=O)OCO2 [LMP776] : 1

----------
Assay: Plasma pharmacokinetics of LMP744, non-compartmental
Format: in vivo, human
Details: human, plasma, intravenous; DL4, 48 mg/m2, n=1
QUANTITY: AUC(0-t) (ng·h/mL)
Report the figure in ng·h/mL without appending any unit label.

AUC(0-t) reported for this compound `COc1cc2c3c(n(CCCNCCO)c(=O)c2cc1OC)-c1cc2c(cc1C3=O)OCO2` : 632

----------
Test: Plasma pharmacokinetics of LMP744, non-compartmental
Format: in vivo, human
Conditions: human, plasma, intravenous; DL4, 48 mg/m2, n=1
QUANTITY: Tmax (h)
Report the figure in h without appending any unit label.

Tmax reported for this compound `COc1cc2c3c(n(CCCNCCO)c(=O)c2cc1OC)-c1cc2c(cc1C3=O)OCO2` : 1

----------
Experiment: Plasma pharmacokinetics of LMP776, non-compartmental
Type: in vivo, human
Conditions: human, plasma, intravenous; DL4, 4.5 mg/m2, n=3
QUANTITY: Cmax (ng/mL)
Report the figure in ng/mL without appending any unit label.

Cmax reported for this molecule COc1cc2c3c(n(CCCn4ccnc4)c(=O)c2cc1OC)-c1cc2c(cc1C3=O)OCO2 [LMP776] : 178

----------
Assay: Plasma pharmacokinetics of LMP744, non-compartmental
Type: in vivo, human
Conditions: human, plasma, intravenous, 260 mg/m2, DL7, 260 mg/m2, n=10; read-out: t1/2 (converted)
QUANTITY: half-life (h)
Report the figure in h without appending any unit label.

half-life reported for this molecule COc1cc2c3c(n(CCCNCCO)c(=O)c2cc1OC)-c1cc2c(cc1C3=O)OCO2 [LMP744] : 10.9

----------
Experiment: Plasma pharmacokinetics of LMP744, non-compartmental
Type: in vivo, human
Settings: human, plasma, intravenous, 24 mg/m2, DL3, 24 mg/m2, n=3; read-out: t1/2 (converted)
QUANTITY: half-life (h)
Report the figure in h without appending any unit label.

half-life reported for this molecule `COc1cc2c3c(n(CCCNCCO)c(=O)c2cc1OC)-c1cc2c(cc1C3=O)OCO2` : 14

----------
Assay: Plasma pharmacokinetics of LMP744, non-compartmental
Format: in vivo, human
Conditions: human, plasma, intravenous, 190 mg/m2, DL6 (MTD), 190 mg/m2, n=16; read-out: t1/2 (mean half-life) (converted)
QUANTITY: half-life

half-life reported for this compound `COc1cc2c3c(n(CCCNCCO)c(=O)c2cc1OC)-c1cc2c(cc1C3=O)OCO2` : 13.6 h

----------
Assay: Plasma pharmacokinetics of LMP776, non-compartmental
Format: in vivo, human
Conditions: human, plasma, intravenous; DL5, 6.75 mg/m2, n=3
QUANTITY: AUC(0-inf) (ng·h/mL)
Report the figure in ng·h/mL without appending any unit label.

AUC(0-inf) reported for this compound `COc1cc2c3c(n(CCCn4ccnc4)c(=O)c2cc1OC)-c1cc2c(cc1C3=O)OCO2` : 2510

----------
Experiment: Plasma pharmacokinetics of LMP776, non-compartmental
Assay type: in vivo, human
Settings: human, plasma, intravenous; DL2, 2 mg/m2, n=7
QUANTITY: AUC(0-t) (ng·h/mL)
Report the figure in ng·h/mL without appending any unit label.

AUC(0-t) reported for this molecule `COc1cc2c3c(n(CCCn4ccnc4)c(=O)c2cc1OC)-c1cc2c(cc1C3=O)OCO2` : 530

----------
Assay: Plasma pharmacokinetics of LMP776, non-compartmental
Format: in vivo, human
Details: human, plasma, intravenous; DL1, 1 mg/m2, n=1
QUANTITY: AUC(0-t) (ng·h/mL)
Report the figure in ng·h/mL without appending any unit label.

AUC(0-t) reported for this molecule COc1cc2c3c(n(CCCn4ccnc4)c(=O)c2cc1OC)-c1cc2c(cc1C3=O)OCO2 [LMP776] : 359

----------
Experiment: Plasma pharmacokinetics of LMP744, non-compartmental
Format: in vivo, human
Conditions: human, plasma, intravenous; DL6 (MTD), 190 mg/m2, n=16
QUANTITY: Tmax (h)
Report the figure in h without appending any unit label.

Tmax reported for this compound COc1cc2c3c(n(CCCNCCO)c(=O)c2cc1OC)-c1cc2c(cc1C3=O)OCO2 [LMP744] : 1

----------
Test: Plasma pharmacokinetics of LMP776, non-compartmental
Assay type: in vivo, human
Details: human, plasma, intravenous, 2 mg/m2, DL2, 2 mg/m2, n=7; read-out: t1/2 (converted)
QUANTITY: half-life (h)
Report the figure in h without appending any unit label.

half-life reported for this molecule `COc1cc2c3c(n(CCCn4ccnc4)c(=O)c2cc1OC)-c1cc2c(cc1C3=O)OCO2` : 20.8

----------
Experiment: Plasma pharmacokinetics of LMP776, non-compartmental
Assay type: in vivo, human
Conditions: human, plasma, intravenous; DL6, 9 mg/m2, n=2
QUANTITY: AUC(0-t) (ng·h/mL)
Report the figure in ng·h/mL without appending any unit label.

AUC(0-t) reported for this compound `COc1cc2c3c(n(CCCn4ccnc4)c(=O)c2cc1OC)-c1cc2c(cc1C3=O)OCO2` : 2970

----------
Assay: Plasma pharmacokinetics of LMP776, non-compartmental
Format: in vivo, human
Conditions: human, plasma, intravenous; DL2, 2 mg/m2, n=7
QUANTITY: Tmax (h)
Report the figure in h without appending any unit label.

Tmax reported for this molecule `COc1cc2c3c(n(CCCn4ccnc4)c(=O)c2cc1OC)-c1cc2c(cc1C3=O)OCO2` : 1

----------
Assay: Plasma pharmacokinetics of LMP744, non-compartmental
Assay type: in vivo, human
Conditions: human, plasma, intravenous; DL3, 24 mg/m2, n=3
QUANTITY: Cmax (ng/mL)
Report the figure in ng/mL without appending any unit label.

Cmax reported for this compound COc1cc2c3c(n(CCCNCCO)c(=O)c2cc1OC)-c1cc2c(cc1C3=O)OCO2 [LMP744] : 78.1

----------
Test: Plasma pharmacokinetics of LMP744, non-compartmental
Assay type: in vivo, human
Details: human, plasma, intravenous; DL6 (MTD), 190 mg/m2, n=16
QUANTITY: AUC(0-t) (ng·h/mL)
Report the figure in ng·h/mL without appending any unit label.

AUC(0-t) reported for this compound `COc1cc2c3c(n(CCCNCCO)c(=O)c2cc1OC)-c1cc2c(cc1C3=O)OCO2` : 3770

----------
Test: Plasma pharmacokinetics of LMP744, non-compartmental
Assay type: in vivo, human
Details: human, plasma, intravenous, 6 mg/m2, DL1, 6 mg/m2, n=1; read-out: t1/2 (converted)
Description: Blood was collected during cycle 1 in the LMP744 study on C1D1 at the end of infusion (EOI), then again at 0.25, 0.5, 1, 2, 4, and 6 h after EOI. […] Samples were analyzed using a validated LC–MS or LC–MS/MS method for each IIQ as previously described. Plasma-time data were analyzed using WinNonlin (Pharsight, Mountain View, CA). AUC values were calculated by non-compartmental analysis and end-of-infusion concentrations were measured on days 1 and 5 of cycle 1. […]
QUANTITY: half-life

half-life reported for this compound `COc1cc2c3c(n(CCCNCCO)c(=O)c2cc1OC)-c1cc2c(cc1C3=O)OCO2` : 23.4 h

----------
Assay: Plasma pharmacokinetics of LMP776, non-compartmental
Type: in vivo, human
Conditions: human, plasma, intravenous; DL3, 3 mg/m2, n=3
Protocol: Blood was collected during cycle 1 in the LMP744 study on C1D1 at the end of infusion (EOI), then again at 0.25, 0.5, 1, 2, 4, and 6 h after EOI. […] Samples were analyzed using a validated LC–MS or LC–MS/MS method for each IIQ as previously described. Plasma-time data were analyzed using WinNonlin (Pharsight, Mountain View, CA). AUC values were calculated by non-compartmental analysis and end-of-infusion concentrations were measured on days 1 and 5 of cycle 1. […]
QUANTITY: AUC(0-t)
Quick note: number first, unit second.

AUC(0-t) reported for this molecule `COc1cc2c3c(n(CCCn4ccnc4)c(=O)c2cc1OC)-c1cc2c(cc1C3=O)OCO2` : 1150 ng·h/mL

----------
Assay: Plasma pharmacokinetics of LMP744, non-compartmental
Assay type: in vivo, human
Conditions: human, plasma, intravenous; DL7, 260 mg/m2, n=10
QUANTITY: Tmax

Tmax reported for this molecule `COc1cc2c3c(n(CCCNCCO)c(=O)c2cc1OC)-c1cc2c(cc1C3=O)OCO2` : 1 h

The reported measurements were obtained from paper PMC12122562.
